# Assay type: binding, E. coli 0111:B4
# experimental.conditions: E. coli 0111:B4 LPS; Tables 1-3; read-out: ED50 (half-maximal effective displacement of BC probe from LPS)
// boundary case: EC50 equal to 9 µM maps to -1; strictly smaller maps to 1

Example entries begin here.
[[record]]
compound = "CCCCCCCNCCCCC(N)C(=O)NCCCNCCCCNCCCN (centres unmarked) [Compound 29]"
label_value = 1

[[record]]
compound = "CCCCCCCN(CCCCCCC)CCCC[C@H](N)C(=O)NCCCNCCCCNCCCN"
label_value = 1

[[record]]
compound = "CC(C)(C)C(=O)NCCCCC(N)C(=O)NCCCNCCCCNCCCN (centres unmarked)"
label_value = -1

[[record]]
compound = "COCCOCCOCC(=O)NCCCCC(N)C(=O)NCCCNCCCCNCCCN (centres unmarked)"
label_value = -1

[[record]]
compound = "CCCCCCCCCCCCCCCCS(=O)(=O)NCCCCC(N)C(=O)NCCCNCCCCNCCCN (centres unmarked)"
label_value = 1

[[record]]
compound = "CCCCCCCCCCCCCCCCC(=O)NCCCCC(N)C(=O)NCCCNCCCCNCCCN (centres unmarked)"
label_value = 1

[[record]]
compound = "CCCC/C=C\\CCCCCCCCCCNCCCCC(N)C(=O)NCCCNCCCCNCCCN (centres unmarked)"
label_value = 1

[[record]]
compound = "CC(C)CNCCCCC(N)C(=O)NCCCNCCCCNCCCN (centres unmarked)"
label_value = -1


Prompt: Please determine if CCCCCCCCCCCCCCCCCCCC(=O)NCCCCC(N)C(=O)NCCCNCCCCNCCCN [Compound 7, L-Lys-ε-(eicosanoyl)-N^1-spermine] is below 9 µM in terms of EC50.
Response: 1

Prompt: Would you kindly repeat that for NCCCNCCCCNCCCNC(=O)C(N)CCCCNC(=O)CC1CC2CCC1C2 (centres unmarked) ?
Response: -1

Prompt: Now give it for CCCCCCCC(=O)NCCCCC(N)C(=O)NCCCNCCCCNCCCN (centres unmarked) too.
Response: -1

Prompt: Continue with CCCCCC/C=C/CCCCCCCCCC(=O)NCCCCC(N)C(=O)NCCCNCCCCNCCCN (centres unmarked)
Response: 1

Prompt: CC(C)(C)CCNCCCCC(N)C(=O)NCCCNCCCCNCCCN (centres unmarked) [Compound 33] ?
Response: -1

Prompt: Also check CCCCCCCCCCCCCC(=O)NCCCCC(N)C(=O)NCCCNCCCCNCCCN (centres unmarked)
Response: 1

----------
# Tested on: murine macrophage J774.A1 cells
# procedure.details: Nitric oxide (NO) inhibition in LPS-stimulated J774.A1 cells (Griess)
# Assay type: cell-based
# experimental.conditions: Table 7 focused library, NO inhibition; read-out: NO
endpoint.label: pIC50
# pIC50: negative log10 of molar concentration; output just the value

[[record]]
compound = "CCCCCCCCCCCCCCCCCCCC(=O)NCCCCCC(=O)NCCCNCCCCNCCCN"
recorded_result = 4.58

[[record]]
compound = "CCCCCCCCCCCCCCCCCCNCCCC[C@H](N)C(=O)NCCCNCCCCNCCCN"
recorded_result = 5.65

[[record]]
compound = "CCCCCCCCCCCCCCCCCCCC(=O)NCCCCC(N)C(=O)NCCCNCCCCNCCCN (stereo not shown)"
recorded_result = 5.24


Consider now this further compound.
Prompt: Recorded pIC50 for CCCCCCCCCCCCCC(=O)NCCCCC(N)C(=O)NCCCNCCCCNCCCN (stereo not shown) , please?
Response: 4.59

Origin of values: patent US20060122279A1
